tested on: M21; assay: Cytocidal activity against human M21 cells assessed as growth inhibition after 48 hrs by SRB assay; assay type: functional; conditions: M21, 48 h
Binned GI50; ranges: one: < 5 µM; two: ≥ 5 µM and < 40 µM; three: ≥ 40 µM

Cpd smiles | Discrete label
CCOC(=O)c1c[nH]c2c(ccn3cc(-c4ccccc4)nc23)c1=O | three
CCOC(=O)c1c[nH]c2c(ccn3cc(-c4cccc(OC)c4)nc23)c1=O | three
Cc1ccc(-c2ccc3ccn4ccnc4c3n2)cc1 | two
Clc1ccc(-c2ccc3ccn4ccnc4c3n2)cc1 | one
COc1cc(-c2c[nH]c3ccn4ccnc4c3c2=O)cc(OC)c1OC | three
CCOC(=O)c1c[nH]c2ccn3ccnc3c2c1=O | one
CCOC(=O)c1c[nH]c2c(ccn3ccnc23)c1=O | three
COc1cc(-c2ccc3ccn4ccnc4c3n2)cc(OC)c1OC | two
CCOC(=O)c1c[nH]c2c(ccn3cc(C)nc23)c1=O | three
CCOC(=O)c1c[nH]c2ccn3cc(-c4cccc(OC)c4)nc3c2c1=O | three
CCOC(=O)c1c[nH]c2c(ccn3cc(C(C)C)nc23)c1=O | three
CCOC(=O)c1c[nH]c2ccn3cc(C(C)C)nc3c2c1=O | two
CCOC(=O)c1c[nH]c2ccn3cc(-c4ccccc4)nc3c2c1=O | two
COc1ccc(-c2c[nH]c3ccn4ccnc4c3c2=O)cc1 | one
CCOC(=O)c1c[nH]c2ccn3cc(C)nc3c2c1=O | three
COc1ccc(-c2c[nH]c3c(ccn4ccnc34)c2=O)cc1 | three
O=c1c(-c2ccccc2)c[nH]c2c1ccn1ccnc21 | three
COc1cc(-c2c[nH]c3c(ccn4ccnc34)c2=O)cc(OC)c1OC | three
